# tested on: d-enCas12a (Acidaminococcus sp., UniProt U2UMQ6 1-1307, E174R;S542R;K548R;D908A;E993A;D1235A)
# experiment summary: Spec-seq (native PAGE EMSA with sequencing of bound and unbound); 25 mM Tris-HCl pH 7.4, 150 mM KCl, 5 mM MgCl2, 10% glycerol, 1 mM DTT, 40 ng/uL salmon sperm DNA; 400 nM Cas12a, 480 nM crRNA, 50 nM library, 37 C 1 h; native PAGE at room temperature; high values mean tight binding;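 note: relative affinity from the bound to unbound sequence frequency ratio in Spec-seq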
# condition: protein: recombinant
reported property: binding signal (lnKA)
Answer with a number only, understood to be in lnKA.

1. GGTG (dsDNA) DNA 1: GCTATCTAGTGCTCAGTACGCACTGGGTGAGGAAACTTCTGGCAGGACCAGGTCATGAGATCGGAAGAGCACACGTCTGAACTCCAGTCA DNA 2: TGACTGGAGTTCAGACGTGTGCTCTTCCGATCTCATGACCTGGTCCTGCCAGAAGTTTCCTCACCCAGTGCGTACTGAGCACTAGATAGC RNA: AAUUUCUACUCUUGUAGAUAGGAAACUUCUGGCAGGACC :: -4.86
2. CGTT (dsDNA) DNA 1: GCTATCTAGTGCTCAGTACGCACTGCGTTAGGAAACTTCTGGCAGGACCAGGTCATGAGATCGGAAGAGCACACGTCTGAACTCCAGTCA DNA 2: TGACTGGAGTTCAGACGTGTGCTCTTCCGATCTCATGACCTGGTCCTGCCAGAAGTTTCCTAACGCAGTGCGTACTGAGCACTAGATAGC RNA: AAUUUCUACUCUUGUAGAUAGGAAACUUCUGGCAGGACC :: -5.2

Moving on to another binder below.
Name the recorded binding signal of the item CAAG (dsDNA) DNA 1: GCTATCTAGTGCTCAGTACGCACTGCAAGAGGAAACTTCTGGCAGGACCAGGTCATGAGATCGGAAGAGCACACGTCTGAACTCCAGTCA DNA 2: TGACTGGAGTTCAGACGTGTGCTCTTCCGATCTCATGACCTGGTCCTGCCAGAAGTTTCCTCTTGCAGTGCGTACTGAGCACTAGATAGC RNA: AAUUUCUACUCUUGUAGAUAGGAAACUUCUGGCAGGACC in your answer.
-5.75
